system: GM1 production in Jurkat cells; experiment: cells; type: cell-based; settings: Homo sapiens, Jurkat, 72 h
pIC50: −log10 of the molar value.
Could you label it class 1 if measured pIC50 is 9 or higher, and class 0 otherwise?

Example entries begin here.
compound	category label
CCOc1ccc(-c2ccc3c(c2)OCC(C)(C)C3NC(=O)O[C@@H]2CN3CCC2CC3)c(C)c1 (stereo partly shown) [Example 275]	class 0
CC1(C)COc2cc(-c3cccc(S(=O)(=O)N4CCCC4)c3)ccc2C1NC(=O)O[C@@H]1CN2CCC1CC2 (stereo partly shown) [Example 184]	class 0
COCCOc1ccccc1-c1ccc2c(c1)OCC(C)(C)C2NC(=O)O[C@@H]1CN2CCC1CC2 (stereo partly shown) [Example 109]	class 0
O=C(NC1CCOc2cc(-c3ccc4c(c3)OC(F)(F)O4)ccc21)O[C@@H]1CN2CCC1CC2 (stereo partly shown) [Example 36]	class 0
CN(C)c1cccc(-c2ccc3c(c2)OCC(C)(C)C3NC(=O)O[C@@H]2CN3CCC2CC3)c1 (stereo partly shown) [Example 148]	class 1

Continue with the compound presented below.
Req: Could you please find out whether CC1(C)COc2cc(-c3cccnc3F)ccc2C1NC(=O)O[C@@H]1CN2CCC1CC2 (stereo partly shown) [Example 222] has pIC50 that meets 9 or exceeds it?
Resp: class 0

---

molecular target: glucosylceramide synthase (GCS) (Homo sapiens, UniProt Q16739); construct: The obtained supernatant was used; test: GCS enzyme inhibition assay (A549 cell lysate, NBD C6-ceramide, HPLC fluorescence); conditions: inhibitory activity against GCS, 37° C., 90 minutes
Sequence (Q16739 whole entry): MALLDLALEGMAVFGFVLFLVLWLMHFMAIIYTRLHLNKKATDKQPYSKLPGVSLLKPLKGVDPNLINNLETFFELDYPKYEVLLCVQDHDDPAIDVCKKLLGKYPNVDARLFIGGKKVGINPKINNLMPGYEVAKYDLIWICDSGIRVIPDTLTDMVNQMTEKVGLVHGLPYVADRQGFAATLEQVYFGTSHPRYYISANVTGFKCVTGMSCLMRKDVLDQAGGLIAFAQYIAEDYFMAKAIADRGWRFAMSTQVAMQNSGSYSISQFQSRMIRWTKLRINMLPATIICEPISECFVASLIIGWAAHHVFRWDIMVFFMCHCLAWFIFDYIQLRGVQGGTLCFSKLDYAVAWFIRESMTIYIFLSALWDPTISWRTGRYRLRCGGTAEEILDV
quantity kind: IC50 (nM)
Answer with a number only, understood to be in nM.

Some solved cases for reference:
molecule	IC50 / nM
Cc1ccc(-c2ccc3c(c2)OCC(C)(C)C3NC(=O)O[C@@H]2CN3CCC2CC3)cc1F (some centres unmarked)	0.55
CC1(C)COc2cc(-c3cncs3)ccc2C1NC(=O)O[C@@H]1CN2CCC1CC2 (some centres unmarked)	1.9
CC1(C)COc2cc(-c3cc(Cl)ccc3Cl)ccc2C1NC(=O)O[C@@H]1CN2CCC1CC2 (some centres unmarked)	0.72
CC1(C)COc2cc(-c3ccc(C(F)(F)F)cc3Cl)ccc2C1NC(=O)O[C@@H]1CN2CCC1CC2 (some centres unmarked)	0.62
CC(C)(C)c1cccc(-c2ccc3c(c2)COCC3NC(=O)O[C@@H]2CN3CCC2CC3)c1 (some centres unmarked)	5.62

Req: Report IC50, nothing else, for this molecule: CC1(C)COc2cc(-c3ccc4ccccc4c3)ccc2C1NC(=O)O[C@@H]1CN2CCC1CC2 (some centres unmarked)
Resp: 0.71

Req: Give the value of IC50 reported for the following: COc1ccc(-c2ccc3c(c2)OCC(C)(C)C3NC(=O)O[C@@H]2CN3CCC2CC3)c(Cl)c1 (some centres unmarked)
Resp: 0.65

Req: Please give measured IC50 of the following entry: COc1cccc(-c2ccc3c(c2)OCCC3NC(=O)O[C@@H]2CN3CCC2CC3)c1 (some centres unmarked)
Resp: 1.54

---

tested on: GM1 production in Jurkat cells; assay: cells; assay type: cell-based; settings: Homo sapiens, Jurkat, 72 h
quantity kind: pIC50
Quick note: pIC50 values are minus log10 of concentrations in mol/L.

Guide cases for pIC50, answers given:
compound	pIC50
CC1(C)COc2cc(-c3ccc(-c4ccccc4)cc3)ccc2C1NC(=O)O[C@@H]1CN2CCC1CC2 (stereo partly shown) [Example 242]	8.42
CN1CCC(NC(=O)O[C@@H]2CN3CCC2CC3)c2ccc(-c3cccc(C(C)(C)C)c3)cc21 (stereo partly shown) [Example 314]	7.25
CC1(C)COc2cc(-c3cccc(-c4ccccc4)c3)ccc2C1NC(=O)O[C@@H]1CN2CCC1CC2 (stereo partly shown) [Example 154]	9.39

Alright, here's another compound for you.
Req: // fetch pIC50 for CCOc1ccc(-c2ccc3c(c2)OCC(C)(C)C3NC(=O)O[C@@H]2CN3CCC2CC3)cc1C(F)(F)F (stereo partly shown) [Example 146] ; system: GM1 production in Jurkat cells
Resp: 8.63
